- Assay system: UniProt:Q14973
- Experiment: [3H]-TCA uptake assay (NTCP inhibition)
- Assay type: cell-based
- Run conditions: given as a range; assay not given
Please go through the items and note down their IC50.

In plain terms, CCC1NC(=O)C(C2OC(OCc3ccc4c(c3)OCO4)CC2C)N(C)C(=O)C(C(C)C)N(C)C(=O)C(CC(C)C)N(C)C(=O)C(CC(C)C)N(C)C(=O)C(C)NC(=O)C(C)NC(=O)C(CC(C)C)N(C)C(=O)C(C(C)C)NC(=O)C(CC(C)C)N(C)C(=O)CN(C)C1=O (centres unmarked) [Compound 100A] has a documented IC50 of 1 to 1000 nM

Looking up CCC1NC(=O)C(C2OC(OCc3cc(Cl)cc(Cl)c3)CC2C)N(C)C(=O)C(C(C)C)N(C)C(=O)C(CC(C)C)N(C)C(=O)C(CC(C)C)N(C)C(=O)C(C)NC(=O)C(C)NC(=O)C(CC(C)C)N(C)C(=O)C(C(C)C)NC(=O)C(CC(C)C)N(C)C(=O)CN(C)C1=O (centres unmarked) [Compound 91B] , I found its IC50 recorded as 1 to 1000 nM

###

- Assay system: NTCP (Homo sapiens)
- Sequence (Q14973 whole entry): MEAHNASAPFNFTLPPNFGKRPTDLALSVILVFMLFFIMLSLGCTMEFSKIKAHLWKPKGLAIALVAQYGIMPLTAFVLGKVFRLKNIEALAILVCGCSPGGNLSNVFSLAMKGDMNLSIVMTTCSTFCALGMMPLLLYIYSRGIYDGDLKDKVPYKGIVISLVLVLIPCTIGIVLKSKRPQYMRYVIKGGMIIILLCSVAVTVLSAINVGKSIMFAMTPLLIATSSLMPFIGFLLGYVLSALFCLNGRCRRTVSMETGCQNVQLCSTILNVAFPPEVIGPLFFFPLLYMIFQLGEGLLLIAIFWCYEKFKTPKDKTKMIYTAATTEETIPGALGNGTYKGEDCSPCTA
- Experiment: [3H]-TCA uptake assay (NTCP inhibition)
- Type: cell-based
- Run conditions: IC50, given as a range, marked * (asterisk not explained)
pIC50: −log10 of the molar value.
Assay readout: pIC50

Item: CCC1NC(=O)C(C2OC(Oc3cccc(OCc4cccs4)c3)CC2C)N(C)C(=O)C(C(C)C)N(C)C(=O)C(CC(C)C)N(C)C(=O)C(CC(C)C)N(C)C(=O)C(C)NC(=O)C(C)NC(=O)C(CC(C)C)N(C)C(=O)C(C(C)C)NC(=O)C(CC(C)C)N(C)C(=O)CN(C)C1=O (centres unmarked) | pIC50: 4.00 to 6.00

Please fill in: pIC50 reported for CCC1NC(=O)C(C2OC(Oc3cccc(O)c3)CC2C)N(C)C(=O)C(C(C)C)N(C)C(=O)C(CC(C)C)N(C)C(=O)C(CC(C)C)N(C)C(=O)C(C)NC(=O)C(C)NC(=O)C(CC(C)C)N(C)C(=O)C(C(C)C)NC(=O)C(CC(C)C)N(C)C(=O)CN(C)C1=O (centres unmarked) [Compound 25A-o] = 4.00 to 6.00

###

- Assay system: NTCP (Homo sapiens)
- Experiment: [3H]-TCA uptake assay (NTCP inhibition)
- Assay type: cell-based
- Run conditions: given as a range; assay not given
Hi there, I'd appreciate the recorded IC50 for every entry that follows.

Memo: CCOc1cc(SC2CC(C)C(C3C(=O)NC(CC)C(=O)N(C)CC(=O)N(C)C(CC(C)C)C(=O)NC(C(C)C)C(=O)N(C)C(CC(C)C)C(=O)NC(C)C(=O)NC(C)C(=O)N(C)C(CC(C)C)C(=O)N(C)C(CC(C)C)C(=O)N(C)C(C(C)C)C(=O)N3C)O2)ccc1Cl (stereo not shown) [Compound 41A] , reported IC50: 1 to 1000 nM

Value of measured IC50 for the entry CCC1NC(=O)C(C2OC(Sc3cccc(NCc4ccccc4)c3)CC2C)N(C)C(=O)C(C(C)C)N(C)C(=O)C(CC(C)C)N(C)C(=O)C(CC(C)C)N(C)C(=O)C(C)NC(=O)C(C)NC(=O)C(CC(C)C)N(C)C(=O)C(C(C)C)NC(=O)C(CC(C)C)N(C)C(=O)CN(C)C1=O (stereo not shown) [Compound 48A] : 1 to 1000 nM

Field IC50 (entry CCC1NC(=O)C(C2OC(Sc3ccc(OC)c(OC)c3)CC2C)N(C)C(=O)C(C(C)C)N(C)C(=O)C(CC(C)C)N(C)C(=O)C(CC(C)C)N(C)C(=O)C(C)NC(=O)C(C)NC(=O)C(CC(C)C)N(C)C(=O)C(C(C)C)NC(=O)C(CC(C)C)N(C)C(=O)CN(C)C1=O (stereo not shown) [Compound 37A] ) reads 1 to 1000 nM

IC50 for CCC1NC(=O)C(C2OC(Sc3cccc(OC)c3)CC2C)N(C)C(=O)C(C(C)C)N(C)C(=O)C(CC(C)C)N(C)C(=O)C(CC(C)C)N(C)C(=O)C(C)NC(=O)C(C)NC(=O)C(CC(C)C)N(C)C(=O)C(C(C)C)NC(=O)C(CC(C)C)N(C)C(=O)CN(C)C1=O (stereo not shown) [Compound 28A] is 1 to 1000 nM

Consider CCC1NC(=O)C(C2OC(Sc3cccc(OCc4cccnc4)c3)CC2C)N(C)C(=O)C(C(C)C)N(C)C(=O)C(CC(C)C)N(C)C(=O)C(CC(C)C)N(C)C(=O)C(C)NC(=O)C(C)NC(=O)C(CC(C)C)N(C)C(=O)C(C(C)C)NC(=O)C(CC(C)C)N(C)C(=O)CN(C)C1=O (stereo not shown) [Compound 53A] . Its measured IC50 is 1 to 1000 nM

For this compound ( CCC1NC(=O)C(C2OC(Sc3ccc(OC)cc3)CC2C)N(C)C(=O)C(C(C)C)N(C)C(=O)C(CC(C)C)N(C)C(=O)C(CC(C)C)N(C)C(=O)C(C)NC(=O)C(C)NC(=O)C(CC(C)C)N(C)C(=O)C(C(C)C)NC(=O)C(CC(C)C)N(C)C(=O)CN(C)C1=O (stereo not shown) [Compound 26A] ), measured IC50 is 1 to 1000 nM

Entry CCC1NC(=O)C(C2OC(Sc3cccc(OCC4CCOCC4)c3)CC2C)N(C)C(=O)C(C(C)C)N(C)C(=O)C(CC(C)C)N(C)C(=O)C(CC(C)C)N(C)C(=O)C(C)NC(=O)C(C)NC(=O)C(CC(C)C)N(C)C(=O)C(C(C)C)NC(=O)C(CC(C)C)N(C)C(=O)CN(C)C1=O (stereo not shown) [Compound 33A] ; IC50 = 1 to 1000 nM

Origin of measurements: patent US10961231B2
